These measurements were taken from patent US7658917.

TESTED SYSTEM: natural β-amyloid peptide β-AP1-40 (human)
Sequence (peptide, as listed by the source): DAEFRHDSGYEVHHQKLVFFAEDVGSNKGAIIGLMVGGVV
TEST: cell-based or functional assay
* marks the point of attachment. Cholyl = C[C@H](CCC(=O)*)[C@H]1CC[C@H]2[C@@H]3[C@H](O)C[C@@H]4C[C@H](O)CC[C@]4(C)[C@H]3C[C@H](O)[C@]12C; iminobiotinyl = N=C1N[C@H]2[C@H](CS[C@H]2CCCCC(=O)*)N1
ENDPOINT: % Inhibition of Plateau; nucleation assay; 100 mole % (%)
Report only the number, with the unit % understood.

BINDER: iminobiotinyl-KLVFF-OH [iminobiotinyl-Aβ16-20]
RECORDED RESULT: 86

What does the record list as % Inhibition of Plateau; nucleation assay; 100 mole % for Cholyl-KLVFF-OH [cholyl-Aβ16-20] ?
100

What does the record list as % Inhibition of Plateau; nucleation assay; 100 mole % for Cholyl-KLVAF-OH (SMILES CC(C)C[C@H](NC(=O)[C@H](CCCCN)NC(=O)CC[C@@H](C)[C@H]1CC[C@H]2[C@@H]3[C@H](O)C[C@@H]4C[C@H](O)CC[C@]4(C)[C@H]3C[C@H](O)[C@]12C)C(=O)N[C@H](C(=O)N[C@@H](C)C(=O)N[C@@H](Cc1ccccc1)C(=O)O)C(C)C) [cholyl-Aβ16-20 (Phe19->Ala)] ?
73
